Give IC50 for every item shown.
- target_under_test: NR1-1a/NR2B NMDA receptor (Rattus norvegicus, UniProt P35439+Q00960)
- Construct: expressed in transfected cells; host or cells: HEK293 cells (ATCC CRL1573)
- Sequence (Q00960 27-1482, other chains not shown): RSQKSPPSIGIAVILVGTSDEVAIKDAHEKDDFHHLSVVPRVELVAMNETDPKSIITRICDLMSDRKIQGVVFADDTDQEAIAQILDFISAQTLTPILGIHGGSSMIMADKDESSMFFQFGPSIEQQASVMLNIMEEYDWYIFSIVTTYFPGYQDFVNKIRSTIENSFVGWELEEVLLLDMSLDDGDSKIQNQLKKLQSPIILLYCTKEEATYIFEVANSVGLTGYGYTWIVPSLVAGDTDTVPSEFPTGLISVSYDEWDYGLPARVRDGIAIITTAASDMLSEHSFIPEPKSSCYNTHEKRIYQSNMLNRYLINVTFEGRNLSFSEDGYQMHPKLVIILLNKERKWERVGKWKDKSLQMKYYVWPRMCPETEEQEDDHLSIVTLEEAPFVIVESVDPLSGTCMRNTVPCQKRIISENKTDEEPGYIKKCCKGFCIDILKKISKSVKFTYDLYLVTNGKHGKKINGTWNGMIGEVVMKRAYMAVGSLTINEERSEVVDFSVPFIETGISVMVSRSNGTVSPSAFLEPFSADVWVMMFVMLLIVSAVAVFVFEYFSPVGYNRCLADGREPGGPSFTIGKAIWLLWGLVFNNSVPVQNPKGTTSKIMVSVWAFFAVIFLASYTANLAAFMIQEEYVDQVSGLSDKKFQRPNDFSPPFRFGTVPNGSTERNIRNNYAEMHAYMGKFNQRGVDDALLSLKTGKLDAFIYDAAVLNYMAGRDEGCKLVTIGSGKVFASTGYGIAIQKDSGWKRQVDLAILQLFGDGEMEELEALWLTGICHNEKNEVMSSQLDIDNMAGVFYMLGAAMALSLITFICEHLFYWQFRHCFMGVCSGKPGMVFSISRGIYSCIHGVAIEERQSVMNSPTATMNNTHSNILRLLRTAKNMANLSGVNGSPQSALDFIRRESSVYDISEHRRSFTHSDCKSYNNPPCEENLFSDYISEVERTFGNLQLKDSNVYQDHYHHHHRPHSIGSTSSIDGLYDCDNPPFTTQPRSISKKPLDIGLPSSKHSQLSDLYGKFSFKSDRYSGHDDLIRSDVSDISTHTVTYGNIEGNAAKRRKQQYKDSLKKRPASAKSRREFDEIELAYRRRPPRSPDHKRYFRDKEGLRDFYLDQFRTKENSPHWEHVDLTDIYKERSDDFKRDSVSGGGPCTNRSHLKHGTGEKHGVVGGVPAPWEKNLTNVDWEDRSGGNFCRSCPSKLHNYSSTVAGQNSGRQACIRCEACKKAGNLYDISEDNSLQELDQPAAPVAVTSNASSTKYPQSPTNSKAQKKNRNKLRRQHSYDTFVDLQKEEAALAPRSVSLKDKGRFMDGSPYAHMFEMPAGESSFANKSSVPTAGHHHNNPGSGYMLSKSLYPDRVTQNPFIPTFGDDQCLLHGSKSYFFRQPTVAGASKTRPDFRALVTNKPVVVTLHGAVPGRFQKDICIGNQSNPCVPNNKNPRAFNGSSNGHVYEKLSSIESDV
- test_protocol: Patch-clamp inhibition of glutamate-evoked currents at recombinant NMDA receptors in transfected HEK293 cells
- Assay type: cell-based
- stated_conditions: calculated from relative steroid-induced inhibition, Hill's coefficient 1.2; read-out: IC50
Provide only the numeric value, understood in µM.

stdin: What value of IC50 has been reported for the following compound? "C=C(C)[C@H]1CC[C@H]2[C@@H]3CC[C@@H]4C[C@H](OC(=O)CC(=O)O)CC[C@]4(C)[C@H]3CC[C@]12C"
stdout: 11.8

stdin: What value of IC50 has been reported for the following compound? "C[C@@]12CCC[C@H]1[C@H]1CC[C@H]3C[C@H](OS(=O)(=O)O)CC[C@]3(C)[C@@H]1CC2.c1ccncc1"
stdout: 1.7

stdin: What value of IC50 has been reported for the following compound? "C[C@]12CC[C@@H](OC(=O)CC(=O)O)C[C@H]1CC[C@@H]1[C@@H]2CC[C@]2(C)C=CC[C@@H]12"
stdout: 13.5

stdin: What value of IC50 has been reported for the following compound? "C[C@H]1CC[C@H]2[C@@H]3CC[C@@H]4C[C@H](NC(=O)C(=O)[O-])CC[C@]4(C)[C@H]3CC[C@]12C.[Na+]"
stdout: 3.7

stdin: What value of IC50 has been reported for the following compound? "C=C1CC[C@H]2[C@@H]3CC[C@@H]4C[C@H](OC(=O)CC(=O)O)CC[C@]4(C)[C@H]3CC[C@]12C"
stdout: 18.9

stdin: What value of IC50 has been reported for the following compound? "C/C=C1/CC[C@H]2[C@@H]3CC[C@@H]4C[C@H](OC(=O)CCCC(=O)O)CC[C@]4(C)[C@H]3CC[C@]12C"
stdout: 38.4

stdin: What value of IC50 has been reported for the following compound? CC12CCCCC1C1CCC3CC(OS(=O)(=O)O)CCC3(C)C1CC2 (centres unmarked)
stdout: 2.3

stdin: What value of IC50 has been reported for the following compound? "C[C@@]12CCC[C@H]1[C@@H]1CC[C@@H]3C[C@H](OC(=O)C(=O)O)CC[C@]3(C)[C@H]1CC2"
stdout: 6.3

stdin: What value of IC50 has been reported for the following compound? COC(=O)C1(C)CCC2C(CCC3CC(OS(=O)(=O)O)CCC32C)C1C (centres unmarked)
stdout: 74.6

stdin: What value of IC50 has been reported for the following compound? "COC(=O)[C@@]1(C)CC[C@H]2[C@@H](CC[C@@H]3C[C@H](OS(=O)(=O)O)CC[C@@]32C)C1"
stdout: 224

stdin: What value of IC50 has been reported for the following compound? "C[C@]12CC[C@@H](OS(=O)(=O)O)C[C@H]1CC[C@H]1CCCC[C@@H]12.c1ccncc1"
stdout: 28.3

stdin: What value of IC50 has been reported for the following compound? "C[C@@]12CCC[C@H]1[C@@H]1CC[C@@H]3C[C@H](NC(=O)C(=O)O)CC[C@]3(C)[C@H]1CC2"
stdout: 23.2

stdin: What value of IC50 has been reported for the following compound? "COC[C@@]1(C)CC[C@H]2[C@@H](CC[C@@H]3C[C@H](OS(=O)(=O)O)CC[C@@]32C)[C@@H]1C"
stdout: 33

stdin: What value of IC50 has been reported for the following compound? "C[C@@]12CCC[C@H]1[C@@H]1CC[C@@H]3C[C@H](OC(=O)[C@@H](N)CCC(=O)O)CC[C@]3(C)[C@H]1CC2"
stdout: 1.6

###

- Tested on: laboratory mice, strain CD-1
- test_protocol: Passive avoidance test (aversive motivated memory); also: key: −: the desired effect was not observed; −/+: the desired effect was insufficient; +: the desired effect was observed
- Format: in vivo
outcome_measure: Passive Avoidance Test No Memory Violation

[
  {
    "compound": "C=C1CC[C@H]2[C@@H]3CC[C@@H]4C[C@H](OC(=O)CCC(=O)O)CC[C@]4(C)[C@H]3CC[C@]12C",
    "observed_result": "+"
  },
  {
    "compound": "C[C@@]12CCC[C@H]1[C@@H]1CC[C@@H]3C[C@H](OC(=O)[C@@H](N)CCC(=O)O)CC[C@]3(C)[C@H]1CC2",
    "observed_result": "+"
  },
  {
    "compound": "C[C@H]1CC[C@H]2[C@@H]3CC[C@@H]4C[C@H](OC(=O)[C@@H](N)CCC(=O)O)CC[C@]4(C)[C@H]3CC[C@]12C",
    "observed_result": "+"
  },
  {
    "compound": "C[C@@]12CCCCC1[C@@H]1CC[C@@H]3C[C@H](OC(=O)[C@@H](N)CCC(=O)O)CC[C@]3(C)[C@H]1CC2 (some centres unmarked)",
    "observed_result": "+"
  }
]

# input for lookup
stdin: What value of Passive Avoidance Test No Memory Violation has been reported for the following compound? "C/C=C1/CC[C@H]2[C@@H]3CC[C@@H]4C[C@H](OC(=O)CCC(=O)O)CC[C@]4(C)[C@H]3CC[C@]12C"
stdout: −/+

###

- Test system: laboratory mice, strain CD-1
- test_protocol: Open field test (locomotor activity, sedative effect)
- Assay type: in vivo
- stated_conditions: higher dose of 10 resp. 100 mg/kg
outcome_measure: locomotor activity over time

Below: 5 compounds and their reported locomotor activity over time.
[
  {
    "compound": "C[C@H]1CC[C@H]2[C@@H]3CC[C@@H]4C[C@H](OC(=O)[C@@H](N)CCC(=O)O)CC[C@]4(C)[C@H]3CC[C@]12C [Compound 81]",
    "locomotor activity over time": "significant decrease"
  },
  {
    "compound": "C=C1CC[C@H]2[C@@H]3CC[C@@H]4C[C@H](OC(=O)CCC(=O)O)CC[C@]4(C)[C@H]3CC[C@]12C [Compound 68]",
    "locomotor activity over time": "significant decrease"
  },
  {
    "compound": "C[C@@]12CCCCC1[C@@H]1CC[C@@H]3C[C@H](OC(=O)[C@@H](N)CCC(=O)O)CC[C@]3(C)[C@H]1CC2 (stereo partly shown) [Compound 106]",
    "locomotor activity over time": "significant decrease"
  },
  {
    "compound": "C/C=C1/CC[C@H]2[C@@H]3CC[C@@H]4C[C@H](OC(=O)CCC(=O)O)CC[C@]4(C)[C@H]3CC[C@]12C [Compound 84]",
    "locomotor activity over time": "significant decrease"
  },
  {
    "compound": "C=C1CC[C@H]2[C@@H]3CC[C@@H]4C[C@H](OC(=O)CCCC(=O)O)CC[C@]4(C)[C@H]3CC[C@]12C [Compound 69]",
    "locomotor activity over time": "significant decrease"
  }
]

stdin: What value of locomotor activity over time has been reported for the following compound? C=C1CC[C@H]2[C@@H]3CC[C@@H]4C[C@H](OC(=O)CC(=O)O)CC[C@]4(C)[C@H]3CC[C@]12C [Compound 67]
stdout: significant decrease

stdin: What value of locomotor activity over time has been reported for the following compound? C[C@@]12CCC[C@H]1[C@@H]1CC[C@@H]3C[C@H](OC(=O)[C@@H](N)CCC(=O)O)CC[C@]3(C)[C@H]1CC2 [Compound 130]
stdout: significant decrease

###

Give melting point for every item shown.
Counter-ions that a name gives are not always drawn.

stdin: What value of melting point has been reported for the following compound? "C[C@]12CC[C@@H](CC(=O)O)C[C@H]1CC[C@@H]1[C@@H]2CC[C@]2(C)C(=O)CC[C@@H]12"
stdout: 130 to 133 °C

stdin: What value of melting point has been reported for the following compound? "C=C1CC[C@H]2[C@@H]3CC[C@@H]4C[C@H](OC(=O)CCCCC(=O)O)CC[C@]4(C)[C@H]3CC[C@]12C"
stdout: 100 to 102 °C

stdin: What value of melting point has been reported for the following compound? "C[C@H]1CC[C@H]2[C@@H]3CC[C@@H]4C[C@H](NC(=O)C(=O)[O-])CC[C@]4(C)[C@H]3CC[C@]12C.[Na+]"
stdout: 330 to 334.6 °C

stdin: What value of melting point has been reported for the following compound? "C[C@H]1CC[C@H]2[C@@H]3CC[C@@H]4C[C@H](OC(=O)CC(=O)O)CC[C@]4(C)[C@H]3CC[C@]12C"
stdout: 158 to 161.2 °C

stdin: What value of melting point has been reported for the following compound? COC(=O)[C@@]1(C)CC[C@H]2[C@@H](CC[C@@H]3C[C@H](OS(=O)(=O)O)CC[C@@]32C)C1 (as salt: sulfate)
stdout: 115 to 118 °C

stdin: What value of melting point has been reported for the following compound? CC[C@@H](C)C1CC[C@H]2[C@@H]3CC[C@@H]4C[C@H](NC(=O)C(=O)[O-])CC[C@]4(C)[C@H]3CC[C@]12C.[Na+] (stereo partly shown)
stdout: 182 to 184 °C (dec.)

stdin: What value of melting point has been reported for the following compound? "C[C@]12CC[C@@H](OC(=O)CCC(=O)O)C[C@H]1CC[C@H]1CCCC[C@@H]12"
stdout: 131 to 133 °C

stdin: What value of melting point has been reported for the following compound? C[C@@]12CCCCC1[C@@H]1CC[C@@H]3C[C@H](OC(=O)CCC(=O)O)CC[C@]3(C)[C@H]1CC2 (stereo partly shown)
stdout: 136 to 138 °C

stdin: What value of melting point has been reported for the following compound? C=C1C[C@H]2[C@@H]3CC[C@@H]4C[C@H](OS(=O)(=O)O)CC[C@]4(C)[C@H]3CC[C@]2(C)C1 (as salt: salt)
stdout: 180 to 182 °C

stdin: What value of melting point has been reported for the following compound? "C[C@H]1CC[C@H]2[C@@H]3CC[C@@H]4C[C@H](NC(=O)CC(=O)O)CC[C@]4(C)[C@H]3CC[C@]12C"
stdout: 147.8 to 149.4 °C

stdin: What value of melting point has been reported for the following compound? CC[C@@H](C)C1CC[C@H]2[C@@H]3CC[C@@H]4C[C@H](NC(=O)CC(=O)O)CC[C@]4(C)[C@H]3CC[C@]12C (stereo partly shown)
stdout: 163 to 165 °C

stdin: What value of melting point has been reported for the following compound? "C[C@@]12CCC[C@H]1[C@@H]1CC[C@@H]3C[C@H](OC(=O)[C@@H](N)CCCNC(=N)N)CC[C@]3(C)[C@H]1CC2.Cl.Cl"
stdout: 238 to 240 °C

stdin: What value of melting point has been reported for the following compound? "C[C@@]12CCC[C@H]1[C@@H]1CC[C@@H]3C[C@H](NC(=O)C(=O)O)CC[C@]3(C)[C@H]1CC2"
stdout: 191 to 193 °C
